Test system: TGF-β
Test: AlphaScreen SureFire p-SMAD3 (Ser423/425) assay, TGF-β-stimulated cells
Assay type: cell-based
Conditions: Mus musculus, MPC-11, read-out: TGF-β: inhibition of TGF-β signaling, TGF-β pSMAD (MPC-11), p-SMAD3 (Ser423/425) AlphaScreen in cell lysate, TGF-β stimulation
pIC50: −log10 of the molar value.
Entries and their measured pIC50 follow.

Example entries and their recorded answers appear below.
compound	studySystem	pIC50
Cc1ccc(Cl)cc1-c1nc2n(c1-c1ccc3ncsc3c1)CCC2 [Compound 350]	TGF-β	6.00 to 7.00
Cc1c(F)ccc(-c2nc3n(c2-c2ccc4ncsc4c2)CCC3)c1Cl [Compound 313]	TGF-β	6.00 to 7.00
COc1cccc(-c2nc3n(c2-c2ccc4[nH]ncc4c2)CCC3)c1 [Compound 185]	TGF-β	6.00 to 7.00

Entry NC(=O)C1CCC2(CC1)Cc1nc(-c3ccc(F)cc3)c(-c3ccc4ncnn4c3)n1C2 (stereo not drawn) [Compound 80] , pIC50 reported as < 6.00

Values compiled from patent US10696693B2.
